Where do the numbers come from? From patent US10081624B2.

- TEST_SYSTEM: HDAC1 enzyme (Homo sapiens, UniProt Q13547)
- Construct: prepared by transducing full length HDAC1 and HDAC6 genes into Sf-9 insect cells; GST; purchased SignalChem; host or cells: Sf-9 insect cells
- Sequence (Q13547 whole entry): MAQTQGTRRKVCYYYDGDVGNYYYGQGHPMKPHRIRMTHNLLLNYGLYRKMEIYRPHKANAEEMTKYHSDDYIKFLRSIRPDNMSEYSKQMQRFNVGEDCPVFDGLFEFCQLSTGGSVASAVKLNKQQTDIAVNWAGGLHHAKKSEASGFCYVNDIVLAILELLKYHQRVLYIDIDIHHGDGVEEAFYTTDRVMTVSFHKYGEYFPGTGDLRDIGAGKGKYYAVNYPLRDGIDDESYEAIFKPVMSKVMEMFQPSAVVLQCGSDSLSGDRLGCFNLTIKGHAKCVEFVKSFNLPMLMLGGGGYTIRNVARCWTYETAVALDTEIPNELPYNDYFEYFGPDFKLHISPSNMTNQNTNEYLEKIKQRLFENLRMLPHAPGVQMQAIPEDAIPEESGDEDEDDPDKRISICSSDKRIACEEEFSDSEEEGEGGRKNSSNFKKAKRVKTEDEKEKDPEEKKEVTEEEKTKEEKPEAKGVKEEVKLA
- TEST_PROTOCOL: HDAC1 enzyme inhibitory assay (HDAC-Glo I/II Assay kit)
- Type: biochemical
- STATED_CONDITIONS: 1 μM test compound; read-out: HDAC1 inhibitory rate (%) (1 μM)
MEASURED_METRIC: inhibition at 1 µM (%)

Recorded inhibition at 1 µM, per entry:
[[record]]
molecule = "Cn1nc2ccccc2c1C(=O)N1CCOC[C@@H]1CNC(=O)c1ccc(-c2noc(C(F)(F)F)n2)cn1 [Example 184]"
value = 77

[[record]]
molecule = "CCn1nccc1C(=O)N1CCOCC1CNC(=O)c1ccc(-c2noc(C(F)(F)F)n2)cc1 (stereo in doubt) [Example 106]"
value = 51

[[record]]
molecule = "O=C(NCC1COCCN1C(=O)C(F)(F)c1ccccc1)c1ccc(-c2noc(C(F)(F)F)n2)s1 (stereo not drawn) [Example 246]"
value = 52

[[record]]
molecule = "O=C(NCC1CCCN1C(=O)c1ccccc1)c1ccc(-c2noc(C(F)(F)F)n2)cc1 (stereo not drawn) [Example 162]"
value = 16

[[record]]
molecule = "Cc1nocc1C(=O)N1CCOCC1CNC(=O)c1ccc(-c2noc(C(F)(F)F)n2)cc1 (stereo in doubt) [Example 94]"
value = 30


(I) O=C(NCC1COCCN1C(=O)c1cc(Cl)cc(Cl)c1)c1ccc(-c2noc(C(F)(F)F)n2)s1 (stereo not drawn) [Example 211]
(II) O=C(NC[C@H]1COCCN1C(=O)N1CCC[C@@H]1C(F)(F)F)c1ccc(-c2noc(C(F)(F)F)n2)cc1 [Example 286]
(III) O=C(NC[C@H]1COCCN1C(=O)N1CCC(CCO)C1)c1ccc(-c2noc(C(F)(F)F)n2)cc1 (stereo partly drawn) [Example 300]
Query: Arrange the 3 molecules from largest to smallest inhibition at 1 µM. Use the labels to give the requested order.
Result: I, III, II

* * *

- TEST_SYSTEM: HDAC6 enzyme (Homo sapiens, UniProt Q9UBN7)
- Construct: prepared by transducing full length HDAC1 and HDAC6 genes into Sf-9 insect cells; GST; purchased SignalChem; host or cells: Sf-9 insect cells
- Sequence (Q9UBN7 whole entry): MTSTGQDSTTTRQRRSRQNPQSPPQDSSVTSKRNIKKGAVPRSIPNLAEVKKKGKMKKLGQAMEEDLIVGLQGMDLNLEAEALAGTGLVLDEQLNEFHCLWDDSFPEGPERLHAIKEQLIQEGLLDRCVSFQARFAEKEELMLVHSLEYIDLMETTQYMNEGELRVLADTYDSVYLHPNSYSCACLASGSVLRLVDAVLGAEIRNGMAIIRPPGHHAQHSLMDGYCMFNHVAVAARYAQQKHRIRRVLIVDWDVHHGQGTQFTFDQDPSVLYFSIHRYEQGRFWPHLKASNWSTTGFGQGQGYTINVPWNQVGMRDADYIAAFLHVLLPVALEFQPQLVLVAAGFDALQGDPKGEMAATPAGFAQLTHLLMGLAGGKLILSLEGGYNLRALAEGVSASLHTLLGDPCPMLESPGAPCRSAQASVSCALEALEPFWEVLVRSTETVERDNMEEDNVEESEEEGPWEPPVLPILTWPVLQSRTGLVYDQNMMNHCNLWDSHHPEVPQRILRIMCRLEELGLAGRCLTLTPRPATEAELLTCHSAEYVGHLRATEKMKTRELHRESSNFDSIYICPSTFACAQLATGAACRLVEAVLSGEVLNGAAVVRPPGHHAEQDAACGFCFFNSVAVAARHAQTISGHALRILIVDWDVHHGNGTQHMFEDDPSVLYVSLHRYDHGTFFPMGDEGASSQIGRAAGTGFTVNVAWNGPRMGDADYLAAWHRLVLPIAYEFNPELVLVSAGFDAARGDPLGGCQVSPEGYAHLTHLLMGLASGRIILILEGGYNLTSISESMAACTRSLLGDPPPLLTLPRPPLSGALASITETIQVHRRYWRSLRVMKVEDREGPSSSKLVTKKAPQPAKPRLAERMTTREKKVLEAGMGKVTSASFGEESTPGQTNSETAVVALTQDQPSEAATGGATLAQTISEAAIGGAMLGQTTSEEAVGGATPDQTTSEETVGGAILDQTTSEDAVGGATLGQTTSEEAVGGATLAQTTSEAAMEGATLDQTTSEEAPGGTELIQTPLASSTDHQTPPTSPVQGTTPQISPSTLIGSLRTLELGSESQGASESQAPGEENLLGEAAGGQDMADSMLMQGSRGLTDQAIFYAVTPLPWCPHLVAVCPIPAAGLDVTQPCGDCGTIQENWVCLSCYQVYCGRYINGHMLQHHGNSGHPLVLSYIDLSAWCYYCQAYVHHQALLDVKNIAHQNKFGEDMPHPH
- TEST_PROTOCOL: HDAC6 enzyme inhibitory assay (HDAC-Glo I/II Assay kit)
- Assay type: biochemical
- STATED_CONDITIONS: 1 μM test compound; read-out: HDAC6 inhibitory rate (%) (1 μM)
MEASURED_METRIC: inhibition at 1 µM (%)

[[record]]
molecule = "O=C(NC[C@H]1COCCN1C(=O)CC1CC1)c1ccc(-c2noc(C(F)(F)F)n2)cc1 [Example 76]"
unit_spec = "%"
value = 90

[[record]]
molecule = "O=C(NC[C@H]1COCCN1C(=O)N1CCC(CO)C1)c1ccc(-c2noc(C(F)(F)F)n2)cc1 (some centres unmarked) [Example 298]"
unit_spec = "%"
value = 88

[[record]]
molecule = "O=C(NCC1COCCN1C(=O)c1ccccc1)c1ccc(-c2noc(C(F)(F)F)n2)cc1 (centres unmarked) [Example 1]"
unit_spec = "%"
value = 98

[[record]]
molecule = "O=C(NC[C@H]1COCCN1C(=O)N1CCC(CCO)CC1)c1ccc(-c2noc(C(F)(F)F)n2)cc1 [Example 279]"
unit_spec = "%"
value = 90

[[record]]
molecule = "Cc1cc(C(=O)N2CCOC[C@@H]2CNC(=O)c2ccc(-c3noc(C(F)(F)F)n3)cc2)on1 [Example 62]"
unit_spec = "%"
value = 93

[[record]]
molecule = "O=C(NCC1COCCN1C(=O)c1ccc(-c2ccccc2)cc1)c1ccc(-c2noc(C(F)(F)F)n2)s1 (centres unmarked) [Example 223]"
unit_spec = "%"
value = 93

[[record]]
molecule = "O=C(NCC1COCCN1C(=O)c1ccc(Cl)cc1)c1ccc(-c2noc(C(F)(F)F)n2)cc1 (centres unmarked) [Example 8]"
unit_spec = "%"
value = 97

[[record]]
molecule = "O=C(NCC1COCCN1C(=O)N1CCOCC1)c1ccc(-c2noc(C(F)(F)F)n2)cc1 (stereo in doubt) [Example 99]"
unit_spec = "%"
value = 99


* * *

- TEST_SYSTEM: HDAC1 enzyme (Homo sapiens, UniProt Q13547)
- Construct: prepared by transducing full length HDAC1 and HDAC6 genes into Sf-9 insect cells; GST; purchased SignalChem; host or cells: Sf-9 insect cells
- TEST_PROTOCOL: HDAC1 enzyme inhibitory assay (HDAC-Glo I/II Assay kit)
- Format: biochemical
- STATED_CONDITIONS: 1 μM test compound; read-out: HDAC1 inhibitory rate (%) (1 μM)
MEASURED_METRIC: inhibition at 1 µM (%)

(P) O=C(NC[C@H]1COCCN1C(=O)N1CCCOC(CO)C1)c1ccc(-c2noc(C(F)(F)F)n2)cc1 (some centres unmarked) [Example 291]
(Q) O=C(NCC1COCCN1C(=O)c1cccs1)c1ccc(-c2noc(C(F)(F)F)n2)cc1 (centres unmarked) [Example 15]
Query: Identify the entry with the larger inhibition at 1 µM. Options: P and Q Pick one and reply with its label.
Result: Q

(P) O=C(NCC1COCCN1C(=O)C1CCc2ccccc2O1)c1ccc(-c2noc(C(F)(F)F)n2)cc1 (centres unmarked) [Example 35]
(Q) O=C(NCC1COCCN1C(=O)C12CC3CC(CC(C3)C1)C2)c1ccc(-c2noc(C(F)(F)F)n2)cc1 (stereo in doubt) [Example 97]
(R) Cn1nccc1CC(=O)N1CCOC[C@@H]1CNC(=O)c1ccc(-c2noc(C(F)(F)F)n2)cc1 [Example 297]
(S) O=C(NC[C@H]1COCCN1C(=O)N1CCC(CCO)CC1)c1ccc(-c2noc(C(F)(F)F)n2)cc1 [Example 279]
Query: Arrange the 4 compounds from largest to smallest inhibition at 1 µM. Use the labels to give the requested order.
Result: P, Q, S, R
(P: 30%, Q: 16%, S: 10%, R: 5%)

(A) O=C(NCC1COCCN1C(=O)C1C2CC3CC(C2)CC1C3)c1ccc(-c2noc(C(F)(F)F)n2)s1 (centres unmarked) [Example 256]
(B) O=C(NCC1COCCN1C(=O)c1ccccc1-c1ccccc1)c1ccc(-c2noc(C(F)(F)F)n2)cc1 (centres unmarked) [Example 32]
Query: Identify the entry with the larger inhibition at 1 µM. Options: A and B Pick one and reply with its label.
Result: A
(A: 34%, B: 23%)

(1) N#Cc1cccc(C(=O)N2CCOCC2CNC(=O)c2ccc(-c3noc(C(F)(F)F)n3)cc2)c1 (centres unmarked) [Example 28]
(2) C[C@@H]1CCCN1C(=O)N1CCOC[C@@H]1CNC(=O)c1ccc(-c2noc(C(F)(F)F)n2)cc1 [Example 289]
(3) CC(C)(C(=O)N1CCOC[C@@H]1CNC(=O)c1ccc(-c2noc(C(F)(F)F)n2)cn1)c1ccccc1 [Example 206]
Query: Please produce an ascending ranking of these compounds based on inhibition at 1 µM. Use the labels to give the requested order.
Result: 2, 1, 3

(A) O=C(NCC1COCCN1C(=O)C1CCOCC1)c1ccc(-c2noc(C(F)(F)F)n2)cc1 (centres unmarked) [Example 26]
(B) O=C(NC[C@@H]1COCCN1C(=O)c1cc(F)cc(F)c1)c1ccc(-c2noc(C(F)(F)F)n2)cc1 [Example 155]
Query: Identify the entry with the larger inhibition at 1 µM. Options: A and B Pick one and reply with its label.
Result: B
(B: 15%, A: 10%)

(a) N#Cc1cc(Cl)cc(C(=O)N2CCOC[C@@H]2CNC(=O)c2ccc(-c3noc(C(F)(F)F)n3)cc2)c1 [Example 86]
(b) O=C(NC[C@H]1COCCN1C(=O)N1CCC(F)(F)CC1)c1ccc(-c2noc(C(F)(F)F)n2)cc1 [Example 277]
Query: Identify the entry with the smaller inhibition at 1 µM: a or b . Pick one and reply with its label.
Result: b

(1) O=C(NCC1COCCN1C(=O)c1cccc(-c2ccccc2)c1)c1ccc(-c2noc(C(F)(F)F)n2)cc1 (centres unmarked) [Example 31]
(2) O=C(NCC1COCCN1C(=O)c1ccnc(C2CC2)c1)c1ccc(-c2noc(C(F)(F)F)n2)cc1 (centres unmarked) [Example 34]
Query: Identify the entry with the smaller inhibition at 1 µM: 1 or 2 . Pick one and reply with its label.
Result: 2
(2: 18%, 1: 28%)

* * *

- TEST_SYSTEM: HDAC1 enzyme (Homo sapiens)
- Construct: prepared by transducing full length HDAC1 and HDAC6 genes into Sf-9 insect cells; GST; purchased SignalChem; host or cells: Sf-9 insect cells
- TEST_PROTOCOL: HDAC1 enzyme inhibitory assay (HDAC-Glo I/II Assay kit)
- Type: biochemical
- STATED_CONDITIONS: 1 μM test compound; read-out: HDAC1 inhibitory rate (%) (1 μM)
MEASURED_METRIC: inhibition at 1 µM (%)

Recorded inhibition at 1 µM, per entry:
[[record]]
compound = "O=C(NCC1COCCN1C(=O)c1ccc(Cl)cc1)c1ccc(-c2noc(C(F)(F)F)n2)cc1 (stereo not shown)"
unit_spec = "%"
value = 33

[[record]]
compound = "N#Cc1ccc(C(=O)N2CCOC[C@@H]2CNC(=O)c2ccc(-c3noc(C(F)(F)F)n3)cc2)cc1"
unit_spec = "%"
value = 25

[[record]]
compound = "O=C(NCC1Cc2ccccc2N1C(=O)c1ccccc1)c1ccc(-c2noc(C(F)(F)F)n2)cc1 (stereo not shown)"
unit_spec = "%"
value = 15

[[record]]
compound = "Cc1ccc(C(=O)N2CCOCC2CNC(=O)c2ccc(-c3noc(C(F)(F)F)n3)cc2)cc1 (stereo not shown)"
unit_spec = "%"
value = 21

[[record]]
compound = "O=C(NCC1COCCN1C(=O)c1ccc(F)cc1)c1ccc(-c2noc(C(F)(F)F)n2)cc1 (stereo not shown)"
unit_spec = "%"
value = 21


(1) O=C(NC[C@@H]1COCCN1C(=O)c1cc2ccccc2o1)c1ccc(-c2noc(C(F)(F)F)n2)cc1
(2) O=C(NC[C@@H]1COCCN1C(=O)C1CCCC1)c1ccc(-c2noc(C(F)(F)F)n2)cc1
(3) Cn1nc2ccccc2c1C(=O)N1CCOC[C@H]1CNC(=O)c1ccc(-c2noc(C(F)(F)F)n2)cc1
(4) O=C(NCC1COCCN1C(=O)c1ccccn1)c1ccc(-c2noc(C(F)(F)F)n2)cc1 (stereo not shown)
(5) Cc1nonc1C(=O)N1CCOC[C@H]1CNC(=O)c1ccc(-c2noc(C(F)(F)F)n2)s1
Query: Please produce an ascending ranking of these compounds based on inhibition at 1 µM. Use the labels to give the requested order.
Result: 4, 2, 1, 3, 5
